// data source = ChEMBL document CHEMBL1138208

Could you please report measured concentration at 1 h for the items listed next?
# procedureText: Drug level in Sprague-Dawley rat brain at 1 mg/kg, iv after 1 hr
# Type: ADME, organism-based
# Set-up: dose 1 mg/kg, route intravenous
# conditionDetails: read-out: Drug uptake
One number for each entry, in nM.

                          chemicalstructure  unitstext  numericreadout
0  C[C@H](NC(=O)C(C)(C)Oc1cc(F)cc(F)c1)[C@@H](Cc1ccc(Cl)cc1)c1ccccc1         nM             270

Here is the next item to consider.
Prompt: Given the entry "C[C@H](NC(=O)C(C)(C)Oc1ccc(C(F)(F)F)cn1)[C@@H](Cc1ccc(Cl)cc1)c1cccc(C#N)c1" , report its measured concentration at 1 h.
Completion: 110

* * *

# measurementTarget: Cannabinoid receptor 1 (Homo sapiens, UniProt P21554)
# Sequence (P21554 whole entry): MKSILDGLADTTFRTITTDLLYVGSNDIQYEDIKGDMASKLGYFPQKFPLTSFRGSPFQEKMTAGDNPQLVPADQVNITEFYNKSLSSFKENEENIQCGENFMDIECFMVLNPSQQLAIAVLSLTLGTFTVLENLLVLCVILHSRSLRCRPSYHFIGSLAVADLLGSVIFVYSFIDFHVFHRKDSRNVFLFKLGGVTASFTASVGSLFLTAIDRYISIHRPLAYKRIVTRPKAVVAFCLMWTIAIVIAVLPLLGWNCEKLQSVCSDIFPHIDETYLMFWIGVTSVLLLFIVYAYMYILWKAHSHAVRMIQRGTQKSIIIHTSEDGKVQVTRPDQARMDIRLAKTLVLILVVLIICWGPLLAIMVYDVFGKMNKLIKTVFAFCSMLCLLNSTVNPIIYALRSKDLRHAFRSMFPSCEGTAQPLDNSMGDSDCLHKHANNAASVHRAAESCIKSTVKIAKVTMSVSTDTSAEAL
# procedureText: biochemical
property: pIC50
Numbers only, as −log10 of the molar value.

For every listed record, write down its pIC50.
1. C[C@H](NC(=O)C(C)(C)Oc1ccc(Cl)cc1)[C@@H](Cc1ccc(C(F)(F)F)cc1)c1ccccc1
2. C[C@H](NC(=O)C(C)(C)Oc1ccc(Cl)cc1)[C@@H](Cc1ccc(Cl)cc1)c1cccc(F)c1
3. C[C@@H](NC(=O)C(C)(C)Oc1ccc(Cl)cc1)[C@H](Cc1ccc(Cl)cc1)c1ccccc1
4. C[C@H](NC(=O)C(C)(C)Oc1ccc(Cl)cc1)[C@@H](Cc1ccccc1)c1ccccc1
5. C[C@H](NC(=O)C(C)(C)Oc1ccc(Cl)cc1)[C@@H](Cc1ccc(F)cc1)c1ccccc1

Completion:
[8.47, 8.55, 6.77, 7.48, 7.85]
